B1: F1*; the commonest letter at each place (parent)
chain: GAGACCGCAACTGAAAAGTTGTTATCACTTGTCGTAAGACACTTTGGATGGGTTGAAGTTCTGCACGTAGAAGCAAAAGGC

variants of: B1; assay: fraction ligated after 30 min (ligated reads / total reads); higher = more ligase activity; conditions: with F1*sub RNA substrate (template-directed ligation), 42 °C
Hi there, I'd appreciate the recorded fraction ligated for every entry that follows.
Output spec: single numeric token, no unit.

Field request: fraction ligated | item: T32A T43G
0.789

Field request: fraction ligated | item: T35C A36G
0.847

Field request: fraction ligated | item: T23G G47A
0.79

Field request: fraction ligated | item: T44C G46T
0.787

Field request: fraction ligated | item: A24G T30G
0.79

Field request: fraction ligated | item: G38C G47T
0.045

Field request: fraction ligated | item: G34T G47T
0.363

Field request: fraction ligated | item: A36T G46T
0.791

Field request: fraction ligated | item: T35G G47C
0.222

Field request: fraction ligated | item: A24T A37C
0.77

Field request: fraction ligated | item: C40A G47A
0.769

Field request: fraction ligated | item: T23G T30A
0.808

Field request: fraction ligated | item: G47A A56T
0.181

Field request: fraction ligated | item: T25G T43C
0.409

Field request: fraction ligated | item: G50T A56G
0.0624

Field request: fraction ligated | item: T44C G46C
0.8

Field request: fraction ligated | item: C28A C33T
0.829

Field request: fraction ligated | item: A24C G47C
0.00476

Field request: fraction ligated | item: G34T G47A
0.764

Field request: fraction ligated | item: T35C G50A
0.608

Field request: fraction ligated | item: T29C G47A
0.793

Field request: fraction ligated | item: A24C G46T
0.0441

Provenance of the data: the supplement of paper PMC6755084
